Tested on: Escherichia coli TOP10;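 also: peptides expressed intracellularly from a pBAD plasmid library in pooled LB shake-flask culture, induced with 0.3% L-arabinose, DNA abundance read by NGS, three biological replicates, DESeq2 with apeglm shrinkage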
Assay: shrunken log2 fold change of peptide-encoding DNA abundance (4.5 h post-induction vs induction); higher = less antimicrobial activity (less host growth inhibition)
Conditions: time post-induction: 4.5 h; library: site-saturation at positions 5, 18, 19, 20
The label depends only on shrunken log2 fold change: Fulfilled if it is at least 0.01, Not fulfilled if it is smaller.

Solved entries:
q: Quick check, shrunken log2 fold change >= 0.01? RRIRFRPPRLPRPRPRPPIIPRP
a: Fulfilled

q: Entry RRIRTRPPRLPRPRPRPQFDPRP : is its shrunken log2 fold change no less than 0.01?
a: Not fulfilled

q: Could you please find out whether RRIRLRPPRLPRPRPRPYLPPRP has shrunken log2 fold change that meets 0.01 or exceeds it?
a: Not fulfilled

Others:
q: Is the recorded value of shrunken log2 fold change equal to or greater than 0.01 for this sequence? RRIRVRPPRLPRPRPRPWRIPRP
a: Not fulfilled
